measuredOn: CTX-M15 (Escherichia coli)
Sequence (Q9EXV5 entry or part of it): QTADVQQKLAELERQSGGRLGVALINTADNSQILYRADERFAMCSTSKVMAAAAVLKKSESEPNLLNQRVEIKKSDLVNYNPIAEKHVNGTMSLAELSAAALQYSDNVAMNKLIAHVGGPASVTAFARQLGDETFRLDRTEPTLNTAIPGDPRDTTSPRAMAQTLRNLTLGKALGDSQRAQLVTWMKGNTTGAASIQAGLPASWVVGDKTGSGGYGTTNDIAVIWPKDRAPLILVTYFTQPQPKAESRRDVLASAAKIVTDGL
testDetails: In vitro enzyme inhibition assay (nitrocefin hydrolysis), CTX-M15
Format: biochemical
Counter-ions that a name gives are not always drawn.

molecule	measuredOn	IC50
O=C1N2C[C@@H](CC[C@H]2COC(F)(F)F)N1OS(=O)(=O)[O-].[Na+] [Example 8, sulphate]	CTX-M15 (Escherichia coli)	100 to 200 nM
CC(F)(F)[C@@H]1CC[C@@H]2CN1C(=O)N2OS(=O)(=O)[O-].[Na+] [Example 5, sulphate]	CTX-M15 (Escherichia coli)	5 to 20 nM
O=C1N2C[C@@H](CC[C@H]2CF)N1OS(=O)(=O)[O-].[Na+] [Example 4, sulphate]	CTX-M15 (Escherichia coli)	5 to 20 nM
O=C1N2C[C@@H](CC[C@H]2C(F)(F)c2nccs2)N1OS(=O)(=O)[O-].[Na+] [Example 9, sulphate]	CTX-M15 (Escherichia coli)	20 to 100 nM
O=C1N2C[C@@H](CC[C@H]2C(Cl)Cl)N1OS(=O)(=O)O [Example 3, sulfate]	CTX-M15 (Escherichia coli)	20 to 100 nM
O=C1N2C[C@@H](CC[C@H]2C(F)(F)F)N1OS(=O)(=O)O [Example 1, sulfate]	CTX-M15 (Escherichia coli)	5 to 20 nM
O=C1N2C[C@@H](CC[C@H]2C(F)F)N1OS(=O)(=O)O [Example 2, sulfate]	CTX-M15 (Escherichia coli)	5 to 20 nM
